# TEST_DETAILS: Apparent permeability of compound form basolateral to apical side in human Caco2 cells
# Assay type: ADME, cell-based
# EXPERIMENTAL_CONDITIONS: Caco-2
MEASURED_PARAMETER: Papp B→A (×10⁻⁶ cm/s)

compound=Cc1ccc(S(=O)(=O)Cc2nc(-c3ccc(C(=O)NCc4cccnc4)cc3)oc2C)cc1 data_value=37.2

a. NC(=O)N1c2ccccc2C=Cc2ccccc21 [CARBAMAZEPINE]
b. CC[C@]1(O)C[C@@H]2CN(CCc3c([nH]c4ccccc34)[C@@](C(=O)OC)(c3cc4c(cc3OC)N(C)[C@H]3[C@@](O)(C(=O)OC)[C@H](OC(C)=O)[C@]5(CC)C=CCN6CC[C@]43[C@@H]65)C2)C1
c. CC(C)C(=O)Nc1ccc2oc(-c3ccc(C(C)(C)C)cc3)nc2c1
d. O=C(Cc1ccccc1)Nc1ccc(-c2nc3cc(NC(=O)Cc4ccccc4)ccc3[nH]2)cc1
Exercise: Put the compounds in ascending order of Papp B→A. Return value: ordered labels per request.
Key: c, d, b, a
(c: 2.26 ×10⁻⁶ cm/s, d: 4.13 ×10⁻⁶ cm/s, b: 13.1 ×10⁻⁶ cm/s, a: 41.8 ×10⁻⁶ cm/s)
